Answer each item with its documented CC50.
- Test system: HEL
- experimental protocol: Cytotoxicity against HEL cells assessed as reduction in cell growth after 3 days by coulter counter method
- Type: cell-based
- condition context: human, hel, 72 h
# number only, unit µM dropped from output

### Prompt May I ask what CC50 has been recorded for "Nc1cc(OCCOCP(=O)(O)O)nc(N)n1" ?
### Response 90.3

### Prompt Would you mind doing "CC(C)(C)C(=O)OCOP(=O)(COCCOc1cc(N)nc(N)n1)OCOC(=O)C(C)(C)C" as well?
### Response 16.6

### Prompt Would you mind doing "O=c1[nH]c(=O)n([C@H]2C[C@H](O)[C@@H](CO)O2)cc1/C=C/Br" as well?
### Response 242

### Prompt Would you mind doing "CCCCCCCCCCCCCCCCCCOCCOP(=O)(O)COCCn1cnc(N)nc1=O" as well?
### Response 79.2

----------
Answer each item with its documented pEC50.
- Tested on: Human alphaherpesvirus 2
- experimental protocol: Antiviral activity against Herpes simplex virus 2 G infected in HEL cells assessed as inhibition of virus-induced cytopathic effect
- Assay type: functional, cell-based
- condition context: Human alphaherpesvirus 2, strain G
pEC50: −log10 of the molar value.

### Prompt May I ask what pEC50 has been recorded for "CCCCCCCCCCCCCCCCCCOCCOP(=O)(COCCn1cnc(N)nc1=O)OCCOCCCCCCCCCCCCCCCCCC" ?
### Response < 4.00

### Prompt Would you mind doing "COP(=O)(O)COCCn1cnc(N)nc1=O" as well?
### Response < 4.00

### Prompt Would you mind doing "CCCCCCCCCCCCCCCCCCOCCNc1ncn(CCOCP(=O)(OCCOCCCCCCCCCCCCCCCCCC)OCCOCCCCCCCCCCCCCCCCCC)c(=O)n1" as well?
### Response < 4.00

----------
- Test system: Human alphaherpesvirus 1
- experimental protocol: Antiviral activity against thymidine kinase-deficient ACV-resistant Herpes simplex virus 1 KOS infected in HEL cells assessed as inhibition of virus-induced cytopathic effect
- Assay type: functional, cell-based
- condition context: Human alphaherpesvirus 1, KOS
measured endpoint: EC50

### Prompt May I ask what EC50 has been recorded for "COP(=O)(O)COCCn1cnc(N)nc1=O" ?
### Response > 100 µM

### Prompt Would you mind doing "CC(C)OC(=O)OCOP(=O)(O)COCCn1cnc(N)nc1=O" as well?
### Response > 100 µM

### Prompt Would you mind doing "CCCCCCCCCCCCCCCCCCOCCOP(=O)(COCCn1cnc(N)nc1=O)OCCOCCCCCCCCCCCCCCCCCC" as well?
### Response > 100 µM

### Prompt Would you mind doing "CCOC(=O)[C@H](Cc1ccccc1)NP(=O)(O)COCCn1cnc(N)nc1=O" as well?
### Response > 100 µM
